Values were extracted from the nanobody polyreactivity screen of Harvey et al. (2022).

testMethodNotes: yeast display, Sf9 membrane polyspecificity reagent, FACS + sequencing; frameworks hold sequencing errors
observable: polyreactivity (PSR sort gate)

# chain, observable, value
rows = [
    ("QVQLVESVGGLVQAGGSLRLSCAASGRTFSFYAMGRYRQRQGKESELVAGIDGNDGSTYYADSVKGRFTISRDNAKNTVYIQMNSLKPEDTAVYYCNAEKWTGQYCCYYRMYYYWGQGTQVTVSS", "polyreactivity (PSR sort gate)", "low polyreactivity"),
    ("QVQLVESGGGLVLAGGSLRLSCAASGSILTFYAMGWYRQAPGKERELVARITLIVARTNYADSVKARFTISRDNAKNTVYLQMNSLKPEDTAVYYCAKRDGDSGIGFGYWGQGTQVTVSS", "polyreactivity (PSR sort gate)", "low polyreactivity"),
    ("QVQLVESGGGLVQAGGSLRLSCAASGSTFRGYAMGRYRQAPGKERELVAAITRNGGSTYYADSVKGRFTISRDNAKNTVYLQMNSLKPEDTAVFYCAAAKRRTVGVKYTFDYWGQGTQVTVSS", "polyreactivity (PSR sort gate)", "high polyreactivity"),
    ("QVQLVESGGGLVQAGGSLRLSCAASGSIFGLYGMGWYRPAAGKERELLAAITGRGGSTYYADSVKGRFTISRDNAKITVYLQMNSLKPEDTAVYYCAALRYTFAGRFDYWGQGTQVNVSS", "polyreactivity (PSR sort gate)", "high polyreactivity"),
    ("QVQLVESGGGLVQAGGSLRLSCAASGSIFWTNAMGCYRQAPGKERELVASIHSSDASTDYADSVKGRFTISRDNEKNTVYLQMNSLKPEDTAVYYCNAAGAYPYYSEDYYWGQGSQVTVSS", "polyreactivity (PSR sort gate)", "low polyreactivity"),
    ("QVQLVESGGGLVQAGGSLRLSCAASGYTFDGYAMGRYRQAPGKERELVAAINSGGGTYYADSVKGRFTISRDNAKNTVYLQMNSLKPEDTAVYYCAKYTYDYWGQGTQVTVSS", "polyreactivity (PSR sort gate)", "low polyreactivity"),
    ("QVQLVESGGGLVQAGGSLRLICAASRFTFPGYTLGWYRQEPGKERELVATINRSGSTTYADSVKGRFTISRDNAKNTVYLHMYRLKPQDTADYYCAAVVWGSGNKMDYWGQGTQVTGSS", "polyreactivity (PSR sort gate)", "high polyreactivity"),
    ("QVQLVESGGGLVQAGGSLRLSCAASGFTFYYYAMGWYRQAPGKERELVAGITGSGGRTYYADSVKGRFTISRDNAKNTVYLQMNSLKPEDTAVYYCNARSLWYDYWGQGTQVTVSS", "polyreactivity (PSR sort gate)", "high polyreactivity"),
    ("QVQLVESGGGLVQAGGSLRLSCAASGLTIYPNAMGWYRQAPGKERELVAAITYSGDTYYADSVKGRFTISRDNAKNTVYLQMNSLKPEDTAVYYCATDVDWAYGYQYEYWGQGTQVTVSS", "polyreactivity (PSR sort gate)", "low polyreactivity"),
    ("QVQLVESGGGLVQAGGSHRLSCAASGIIIRYYAMGWYRQAPGKERDLVAAISGGGSTYYADSVKGRFTISRDNAKNTVYLQMNRLKPEDTAVYYCAAAGRWYYHGYNYWGQGTQVTVSS", "polyreactivity (PSR sort gate)", "high polyreactivity"),
    ("QVRLVESGGGLVQAGGSLRLSCAASGRTLFVYDMGWYRQAPGKERELVAAISTGDDTNYADSVKGRFTISRDNAKNTVYLQMNSLKPEDTAVYYCNALYYTYPYWGYPSDYNLDYWGQGTQVTVSS", "polyreactivity (PSR sort gate)", "low polyreactivity"),
]
